tested on: Hepatitis B virus; experiment: Antiviral activity against Hepatitis B virus infected in human HepG2.2.15 cells assessed as cell survival at 150 uM after 9 days (reference value: 100%); format: functional; conditions: HepG2 2.2.15, 216 h
// boundary case: viability at 150 µM equal to 90% maps to FALSE; strictly smaller maps to TRUE

Here's an entry: `O=C(/C=C/c1ccc2c(c1)OCO2)O/N=C/c1ccccn1` . Is its viability at 150 µM below 90%?
TRUE

Here's an entry: `COc1cc(/C=C/C(=O)O/N=C/c2ccccn2)cc(OC)c1OC` . Is its viability at 150 µM below 90%?
FALSE

Here's an entry: `COc1ccc(/C=C/C(=O)O/N=C/c2ccccn2)cc1OC` . Is its viability at 150 µM below 90%?
FALSE

Here's an entry: `COc1ccc(/C=C/C(=O)O/N=C/c2ccco2)cc1OC` . Is its viability at 150 µM below 90%?
FALSE
